Measured EC50 values are reported for all entries that follow.
# System: SK-MEL
# assay-remarks: Cytotoxic activity against human SK-MEL cells after 48 hrs by fluorescent resazurin dye assay
# Type: functional, cell-based
Form entry: value (µM) — number only.

// solved cases for EC50 follow
CN1CCN(C(=O)c2cccc3c(NCCc4c[nH]c5ccccc45)c4ccccc4nc23)CC1    16.7
CN1CCN(C(=O)c2ccc3c(NCCc4c[nH]c5ccccc45)c4ccccc4nc3c2)CC1    5.3
CN1CCN(C(=O)c2ccc3c(NC4CCN(Cc5ccccc5)CC4)c4ccccc4nc3c2)CC1    14.6

Hi! What's the reported EC50 for CCN(CC)C(=O)c1ccc2c(NCCc3c[nH]c4ccccc34)c3ccccc3nc2c1 on SK-MEL?
16
